Measured pIC50, listed per entry.
# tested.target: Tyrosine-protein phosphatase non-receptor type 1 (Homo sapiens, UniProt P18031)
# Sequence (P18031 whole entry): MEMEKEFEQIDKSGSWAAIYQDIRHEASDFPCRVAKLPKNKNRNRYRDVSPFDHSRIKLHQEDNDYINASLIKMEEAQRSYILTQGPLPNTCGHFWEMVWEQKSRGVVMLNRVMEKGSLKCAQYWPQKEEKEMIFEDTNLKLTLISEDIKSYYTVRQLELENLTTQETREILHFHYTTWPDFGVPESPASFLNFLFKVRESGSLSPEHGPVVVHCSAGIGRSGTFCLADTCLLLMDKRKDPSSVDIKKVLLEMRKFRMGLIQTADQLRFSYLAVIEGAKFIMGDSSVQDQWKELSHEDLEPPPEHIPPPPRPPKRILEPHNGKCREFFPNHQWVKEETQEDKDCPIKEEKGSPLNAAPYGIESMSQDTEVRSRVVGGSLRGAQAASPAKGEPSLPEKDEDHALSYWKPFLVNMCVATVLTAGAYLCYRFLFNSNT
# experimental.protocol: Inhibition of PTP1B assessed as residual enzyme activity in presence of Triton X-100
pIC50: −log10 of the molar value.

# compound, pIC50
rows = [
    ("CN(C)CCCOc1ccc(-c2nc3c(ccc4ccccc43)o2)cc1", 5.45),
    ("CN(C)CCOc1ccc(-c2nc3c(ccc4ccccc43)o2)cc1", 5.45),
    ("CCCCN(C)CCOc1ccc(-c2nc3c(ccc4ccccc43)o2)cc1", 5.60),
    ("c1ccc2c(c1)ccc1oc(-c3ccc(OCCN4CCCCC4)cc3)nc12", 5.73),
    ("c1ccc2c(c1)ccc1oc(-c3ccc(OCCN4CCCC4)cc3)nc12", 5.24),
    ("CCN(CC)CCOc1ccc(-c2nc3c(ccc4ccccc43)o2)cc1", 5.34),
    ("CCN(CC)CCCOc1ccc(-c2nc3c(ccc4ccccc43)o2)cc1", 5.47),
]

* * *

# tested.target: Tyrosine-protein phosphatase non-receptor type 1 (Homo sapiens)
# experimental.protocol: Inhibition of PTP1B assessed as residual enzyme activity in presence of Triton X-100
Measured Ki, listed per entry.

# compound, unit.of.measure, Ki
data = [
    ("CCCCN(C)CCOc1ccc(-c2nc3c(ccc4ccccc43)o2)cc1", "µM", 41),
    ("c1ccc2c(c1)ccc1oc(-c3ccc(OCCN4CCCC4)cc3)nc12", "µM", 37),
    ("CN(C)CCCOc1ccc(-c2nc3c(ccc4ccccc43)o2)cc1", "µM", 36.3),
    ("c1ccc2c(c1)ccc1oc(-c3ccc(OCCN4CCCCC4)cc3)nc12", "µM", 27.1),
    ("CCN(CC)CCCOc1ccc(-c2nc3c(ccc4ccccc43)o2)cc1", "µM", 41),
    ("CN(C)CCOc1ccc(-c2nc3c(ccc4ccccc43)o2)cc1", "µM", 28.7),
    ("CCN(CC)CCOc1ccc(-c2nc3c(ccc4ccccc43)o2)cc1", "µM", 35.5),
]

* * *

Measured pIC50, listed per entry.
# tested.target: Tyrosine-protein phosphatase non-receptor type 1 (Homo sapiens, UniProt P18031)
# experimental.protocol: Inhibition of PTP1B assessed as residual enzyme activity
pIC50: −log10 of the molar value.
assay.metric: pIC50

# compound, readout.value
data = [
    ("c1ccc2c(c1)ccc1oc(-c3ccc(OCCN4CCCCC4)cc3)nc12", 5.72),
    ("CCN(CC)CCOc1ccc(-c2nc3c(ccc4ccccc43)o2)cc1", 5.34),
    ("CCCCN(C)CCOc1ccc(-c2nc3c(ccc4ccccc43)o2)cc1", 5.60),
    ("CN(C)CCOc1ccc(-c2nc3c(ccc4ccccc43)o2)cc1", 5.45),
    ("CN(C)CCCOc1ccc(-c2nc3c(ccc4ccccc43)o2)cc1", 5.46),
    ("c1ccc2c(c1)ccc1oc(-c3ccc(OCCN4CCCC4)cc3)nc12", 5.24),
    ("CCN(CC)CCCOc1ccc(-c2nc3c(ccc4ccccc43)o2)cc1", 5.47),
]
